Here, each record is paired with measured τv (electronic correlation time) data.
testDescription: Nuclear magnetic relaxation dispersion (NMRD) profiles, Solomon-Bloembergen-Morgan fit
Format: physicochemical
testContext: copper free; best-fit value
Method: FIG. 9. ^1H Nuclear magnetic relaxation dispersion profiles of CG3 and CG3+Cu^+ acquired at 25° C. The solid lines represent the best fit profiles. […] In fact, the measured outer-sphere relaxivities were so low that, in order to obtain a reasonable fit, the distance of closest approach of outer-sphere water protons (a) was allowed to vary. […] For Cu^+-sensing agents CG2-4, the estimated change in q of 2 as determined by DIS measurements was also observed in the fitted NMRD data. […]
Dear colleague, please return just the value in ps, with no unit written.

compound	τv (electronic correlation time) [ps]
CCSCCN(CC(=O)[O-])Cc1cccc(CN2CCN(CC(=O)[O-])CCN(CC(=O)[O-])CCN(CC(=O)[O-])CC2)n1.[Gd+3] [CG6]	16
CCSCCN(CCSCC)Cc1cccc(CN2CCN(CC(=O)[O-])CCN(CC(=O)[O-])CCN(CC(=O)[O-])CC2)n1.[Gd+3] [CG2]	19
CCSCCN(Cc1ccccc1)Cc1cccc(CN2CCN(CC(=O)[O-])CCN(CC(=O)[O-])CCN(CC(=O)[O-])CC2)n1.[Gd+3] [CG4]	25
O=C([O-])CN1CCN(CC(=O)[O-])CCN(Cc2cccc(CN3CCSCCSCCSCC3)n2)CCN(CC(=O)[O-])CC1.[Gd+3] [CG3]	27

Could you now look at the following compound, please?
INPUT: Using the record for CCSCCN(C)Cc1cccc(CN2CCN(CC(=O)[O-])CCN(CC(=O)[O-])CCN(CC(=O)[O-])CC2)n1.[Gd+3] [CG5] , report its τv (electronic correlation time).
OUTPUT: 25

FYI, the data here is from patent US20110294992A1.
